Reported max response values for the following compounds.
- Experimental target: Peroxisome proliferator-activated receptor alpha (Homo sapiens)
- Procedure summary: qHTS assay for small molecule agonists of the peroxisome proliferator-activated receptor alpha (PPARalpha) signaling pathway (AID 651778); also: % of control where 0% means no effect
- Experimental parameters: PathHunter PPARalpha complementation, chemiluminescence, 6 h; active compounds read high
Please reply with the bare figure in % and do not write the unit itself.

Some entries whose results are on file:
Cc1ccc2cccnc2c1 ... -8.31
CCC1CO1 (centres undefined) ... -1.3
CN(C)CCCCl ... -1.33
Cc1cccc2ccccc12 ... -1.89
C=CCOC(=O)COCCC(C)C ... -5.81

Input line: Need max response of "Nc1ccc(F)cc1F" , thanks.
Output line: 7.65

Input line: Repeat with "Nc1c(Cl)cc(Cl)cc1Cl"
Output line: -2.57

Input line: What do you get for "Nc1ccc(Cl)cc1[N+](=O)[O-]" ?
Output line: -2.8

Input line: Another compound: "CC(C)CCOC(=O)/C=C/c1ccccc1"
Output line: 0.372
